Reference for the values: ChEMBL document CHEMBL1201862

Tested on: SF-295
Test: NCI tumour cell line growth inhibition, 48 h
Calls of active or inactive are those of the source. No stated cut-off is given here; in the data, active = GI50 up to about 1.1 µM and inactive = higher.
Reported GI50 by item:

compound: Cc1ccc(-c2c(C#N)c(N)[nH]c(=S)c2C#N)cc1
GI50: 32.8 µM (inactive)

Here is the next item to consider.
Indicate its recorded GI50; the compound in question is COc1ccc(/C(=N/NC(=O)NN)C(c2ccc(OC)cc2)C2(O)CNc3c(Cl)cc(Cl)cc32)cc1 (centres undefined)
> 100 µM (inactive)

###

Test system: HT-29
Experiment: NCI tumour cell line growth inhibition, 48 h
Active and inactive are the calls of the source. Cut-off read from the data, not from the text of the source: active = GI50 up to about 1.1 µM and inactive = higher.
Respond only with the outcome that fits, drawn from y = active, n = inactive

Example results:
compound: CS/C(N)=N/c1cccc2ccccc12
target_of_assay: HT-29
discrete_label: n

compound: O=C(O)c1nnsc1-c1ccc(-c2snnc2C(=O)O)cc1
target_of_assay: HT-29
discrete_label: n

compound: CCOC(=O)c1cc2ncccc2c2ccccc12
target_of_assay: HT-29
discrete_label: n

compound: COc1ccc(N2C(=O)C3c4[nH]c5ccccc5c4C4CCCCCCCCCCC4C3C2=O)cc1 (configuration not stated)
target_of_assay: HT-29
discrete_label: n

compound: Cc1coc2c1C[C@@]1(C)[C@H](CCC[C@@H]1C)[C@H]2O
target_of_assay: HT-29
discrete_label: n

Hi team, can someone confirm the assay call for COc1ccccc1/N=N/C(=N\NC(=O)c1ccc(C)cc1)c1ccc(N(CCC#N)CCC#N)cc1C ?
n

Hi team, can someone confirm the assay call for COc1ccc(-c2nnc3n(C)c4ccccc4n3c2=O)cc1 ?
n

Hi team, can someone confirm the assay call for N#CCCSC(=S)C1CCCC1=N (configuration not stated) ?
n

Hi team, can someone confirm the assay call for CC[n+]1cnc(N)c2c(-c3ccc(Cl)cc3)cn(-c3ccc(C)cc3)c21 ?
n

Hi team, can someone confirm the assay call for S=C(N/N=C/c1ccccn1)N1CCCCC1 ?
y

Hi team, can someone confirm the assay call for O=C(Cc1ccccc1)NN1C(=O)/C(=C\c2cccc([N+](=O)[O-])c2)S/C1=N\c1ccccc1 ?
n

Hi team, can someone confirm the assay call for COC(=O)N/N=C(\C)CC(=O)Nc1ccc(Cl)cc1 ?
n
